// IC50 collected for UniProt:O95342
Answer format: numeric, µM implied, no suffix.

These recorded examples may help you get a feel for the data.
1. Cc1ccc(-n2c3c/c(=N\C(C)C)c(Nc4ccc(Cl)cc4)cc-3nc3ccccc32)cc1 : 135
2. CCCN(CCC)S(=O)(=O)c1ccc(C(=O)O)cc1 [PROBENECID] : 587
3. CCS(=O)(=O)c1ccc(-c2cc(Cl)ccc2OCC(=O)O)c(F)c1 : 168

Could you share which IC50 value was measured for CC1CC(OC(=O)C(O)c2ccccc2)CC(C)(C)C1 (centres undefined) [CYCLANDELATE] ?
15

Another: NC(=O)c1cc([N+](=O)[O-])cc([N+](=O)[O-])c1 [NITROMIDE]
185

====

*1 amine or outer side, *2 acyl side, *3 side chain or, on linkers, in order; H or OH if unused. Where a SMILES comes first, the peptide text is derived from it. Bridges are numbered along the chain shown (N, C = ends). [ ]: non-standard residue; d: D form. The star is where a group is joined. ξ: configuration not given here. ΔAla(Z-3-ureido) = NC(=O)N/C=C(\N)C(=O)O; X1 = N=C1NCCC(C(N[*:1])C(=O)[*:2])N1; ξβ3hOrn = NCCCC(N)CC(=O)*; Dap = NC[CH](N)C(=O)O
// IC50 collected for Bile salt export pump (Homo sapiens)

1. CC12CC3CC(C)(C1)CC(N)(C3)C2 [MEMANTINE] : > 1000 µM

Could you share which IC50 value was measured for O=C(CCCCC(=O)Nc1c(I)cc(I)c(C(=O)O)c1I)Nc1c(I)cc(I)c(C(=O)O)c1I ?
> 970 µM

Another: N=C1NCCC(C2NC(=O)/C(=C/NC(N)=O)NC(=O)C(CNC(=O)CC(N)CCCN)NC(=O)C(CO)NC(=O)C(N)CNC2=O)N1 (stereo not drawn) (H-[Dap]S[Dap](ξβ3hOrn)[ΔAla(Z-3-ureido)][X1]; lactam 1-C; configuration not given here)
> 1000 µM

====

target or test system: UniProtKB O95342
test readout: IC50

These recorded examples may help you get a feel for the data.
1. C[C@]12CC[C@@H]3c4ccc(O)cc4CC[C@H]3[C@@H]1CCC2=O [ESTRONE] : > 1000 µM
2. CCCc1c2nc(C(=O)O)cc(Cl)c2cc2c(=O)cc(C(=O)O)oc12 : > 892 µM
3. CCCc1ccc(OCC(C)O)c2c(=O)cc(C(=O)O)oc12 (configuration not stated) : 271 µM

Could you share which IC50 value was measured for Cc1noc(NS(=O)(=O)c2ccc(N)cc2)c1C [SULFISOXAZOLE] ?
> 1000 µM

Another: C[C@H]1O[C@@H](O[C@H]2[C@@H](O)C[C@H](O[C@H]3[C@@H](O)C[C@H](O[C@H]4CC[C@@]5(C)[C@H](CC[C@@H]6[C@@H]5CC[C@]5(C)[C@@H](C7=CC(=O)OC7)CC[C@]65O)C4)O[C@@H]3C)O[C@@H]2C)C[C@H](O)[C@@H]1O [DIGITOXIN]
< 10 µM

Another: CCCc1c(OCCCCc2nnn[nH]2)ccc(C(C)=O)c1O [TOMELUKAST]
< 10.7 µM

Another: CC1(C)O[C@@H]2C[C@H]3[C@@H]4C[C@H](F)C5=CC(=O)CC[C@]5(C)[C@H]4[C@@H](O)C[C@]3(C)[C@]2(C(=O)CO)O1 [FLURANDRENOLIDE]
71.2 µM

Attribution: ChEMBL document CHEMBL4017441
